Measured Kd, listed per entry.
Biological target: T1, biotin-labeled mouse ADM (mouse, not fully specified; biotin label (named mouse ADM-C-biotin in Example 1.4; position of the biotin not stated for the other lots))
T1 construct: Synthetic peptide; also called mouse ADM-C-biotin; mADM-Biotin
T1 peptide: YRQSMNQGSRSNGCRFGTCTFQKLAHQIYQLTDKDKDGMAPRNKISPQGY
Assay: BLI (Octet RED96e), as in Example 3
Give the number; nM is assumed, so skip it.

Solved entries:
Ab2004.Am38 (IgG1 antibody) (antibody, V domains shown, Expressed in CHO cells, human IgG1/kappa) VH: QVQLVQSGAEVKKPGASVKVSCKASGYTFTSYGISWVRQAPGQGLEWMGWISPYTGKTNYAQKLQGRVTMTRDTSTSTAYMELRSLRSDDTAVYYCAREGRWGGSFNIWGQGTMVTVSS VL: DIQMTQSPSSLSASVGDRVTITCRASQGISSYLAWYQQKPGKAPKLLIYDTSDLDTGVPSRFSGSGSGTDFTFTISSLQPEDIATYYCQQYDNLPLTFGGGTKVEIKR | 0.467
Ab2004.Am33 (IgG1 antibody) (antibody, V domains shown, Expressed in CHO cells, human IgG1/kappa) VH: QVQLVQSGAEVKKPGASVKVSCKASGYTFTSYGISWVRQAPGQGLEWMGWISPYSGNTNYAQKLQGRVTMTRDTSTSTAYMELRSLRSDDTAVYYCAREGRWGGSFNIWGQGTMVTVSS VL: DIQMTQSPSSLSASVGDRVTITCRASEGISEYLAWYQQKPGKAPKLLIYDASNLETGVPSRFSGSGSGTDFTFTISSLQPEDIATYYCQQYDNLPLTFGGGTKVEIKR | 0.474
Ab2004.Am39 (IgG1 antibody) (antibody, V domains shown, Expressed in CHO cells, human IgG1/kappa) VH: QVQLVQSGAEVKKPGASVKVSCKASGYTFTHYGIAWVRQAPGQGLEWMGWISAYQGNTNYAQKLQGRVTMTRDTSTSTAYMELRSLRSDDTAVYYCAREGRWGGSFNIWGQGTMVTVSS VL: DIQMTQSPSSLSASVGDRVTITCRASQGISSYLAWYQQKPGKAPKLLIYDASNLETGVPSRFSGSGSGTDFTFTISSLQPEDIATYYCQQYDDLDLTFGGGTKVEIKR | 0.489

Consider the additional binder presented here.
Qu. Field request: Kd | item: fully human antibody Ab2004.Am01 (expressed antibody) (antibody, V domains shown, also called parent antibody Ab2004.Am01) VH: QVQLVQSGAEVKKPGASVKVSCKASGYTFTSYGISWVRQAPGQGLEWMGWISAYQGNTNYAQKLQGRVTMTRDTSTSTAYMELRSLRSDDTAVYYCAREGRWGGSFNIWGQGTMVTVSS VL: DIQMTQSPSSLSASVGDRVTITCRASQGISSYLAWYQQKPGKAPKLLIYDASNLETGVPSRFSGSGSGTDFTFTISSLQPEDIATYYCQQYDNLPLTFGGGTKVEIK
Ans. 2.21
